All values here come from patent US8648076B2.

Sequence of the target: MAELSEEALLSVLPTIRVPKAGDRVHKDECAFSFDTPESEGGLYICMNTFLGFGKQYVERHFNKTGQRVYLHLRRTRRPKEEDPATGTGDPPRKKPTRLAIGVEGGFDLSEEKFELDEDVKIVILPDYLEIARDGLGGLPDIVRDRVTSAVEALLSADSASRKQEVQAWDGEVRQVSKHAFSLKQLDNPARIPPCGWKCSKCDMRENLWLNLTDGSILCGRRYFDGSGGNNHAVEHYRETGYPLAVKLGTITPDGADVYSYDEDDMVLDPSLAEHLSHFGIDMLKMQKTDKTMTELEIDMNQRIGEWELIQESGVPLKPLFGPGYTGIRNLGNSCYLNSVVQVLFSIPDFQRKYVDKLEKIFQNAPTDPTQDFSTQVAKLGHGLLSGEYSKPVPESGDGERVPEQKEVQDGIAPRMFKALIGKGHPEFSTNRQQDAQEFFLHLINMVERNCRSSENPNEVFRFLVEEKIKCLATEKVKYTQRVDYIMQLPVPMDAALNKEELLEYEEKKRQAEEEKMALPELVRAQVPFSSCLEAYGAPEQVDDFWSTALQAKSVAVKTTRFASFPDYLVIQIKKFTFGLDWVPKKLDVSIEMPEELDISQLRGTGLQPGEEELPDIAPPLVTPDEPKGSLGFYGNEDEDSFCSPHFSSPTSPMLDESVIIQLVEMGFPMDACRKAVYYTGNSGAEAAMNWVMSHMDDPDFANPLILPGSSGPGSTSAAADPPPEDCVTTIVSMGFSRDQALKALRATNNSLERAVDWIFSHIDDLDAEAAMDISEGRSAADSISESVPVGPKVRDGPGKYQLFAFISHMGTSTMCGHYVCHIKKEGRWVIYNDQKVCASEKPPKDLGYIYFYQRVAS
pIC50: −log10 of the molar value.
Kindly supply the reported pIC50 values for the records listed here.

As a guide, the following entries are already answered.
query: What does the record list as pIC50 for N#Cc1nc2c(nc1C(N)=O)-c1ccccc1/C2=N\O ?
result: 5.68

query: Param item = CN(C)c1nc2c(nc1C#N)C(=O)c1ccccc1-2 ; retrieve measured pIC50.
result: < 4.00

query: I am curious: what pIC50 value has been reported for N#Cc1nc2c(nc1C#N)-c1ccc(Cl)cc1C2=NNC(N)=O ?
result: < 4.00

query: Looking for the measured pIC50 of N#Cc1nc2c(nc1C#N)C1(OCCO1)c1ccccc1-2 , can you help?
result: < 4.00

query: # query: pIC50 of entry N#Cc1nc2c(nc1C#N)-c1ccc(Cl)cc1C2=NOCCOc1ccccc1 [Example 27b]
result: < 4.00

Further cases:
query: I am curious: what pIC50 value has been reported for N#Cc1nc2c(nc1C#N)-c1cc(Cl)c(Cl)cc1C2=O ?
result: 6.48
